Biological target: hGlyT2^W215F (Homo sapiens, UniProt Q9Y345, W215F)
Sequence (Q9Y345 1-797 W215F): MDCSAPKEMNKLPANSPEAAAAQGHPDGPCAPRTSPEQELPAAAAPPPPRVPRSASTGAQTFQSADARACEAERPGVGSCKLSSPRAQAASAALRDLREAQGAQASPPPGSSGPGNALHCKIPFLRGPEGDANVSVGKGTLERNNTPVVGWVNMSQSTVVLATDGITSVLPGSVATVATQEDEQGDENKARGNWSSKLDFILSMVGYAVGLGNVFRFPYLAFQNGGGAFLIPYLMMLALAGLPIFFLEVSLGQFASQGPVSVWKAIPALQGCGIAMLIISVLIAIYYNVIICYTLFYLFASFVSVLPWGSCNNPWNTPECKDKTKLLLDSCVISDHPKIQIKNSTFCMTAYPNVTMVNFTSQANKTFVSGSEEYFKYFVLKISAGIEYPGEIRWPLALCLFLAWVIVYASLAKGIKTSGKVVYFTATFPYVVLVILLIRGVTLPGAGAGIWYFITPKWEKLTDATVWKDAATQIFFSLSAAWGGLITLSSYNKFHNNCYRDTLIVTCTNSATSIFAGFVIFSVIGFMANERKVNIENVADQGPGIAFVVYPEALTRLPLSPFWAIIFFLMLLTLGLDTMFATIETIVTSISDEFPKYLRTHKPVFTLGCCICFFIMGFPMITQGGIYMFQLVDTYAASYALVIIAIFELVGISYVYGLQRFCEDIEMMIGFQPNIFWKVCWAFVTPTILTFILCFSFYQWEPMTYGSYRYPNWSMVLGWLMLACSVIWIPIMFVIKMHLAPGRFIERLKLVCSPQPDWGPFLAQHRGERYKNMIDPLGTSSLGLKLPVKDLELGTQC
pIC50: −log10 of the molar value.
Outcome Measure: pIC50

[ask] Value lookup for pIC50; key = CN(C)C1(CNC(=O)c2ccc3c(c2)CCN3C(=O)c2ccccc2)CCOCC1
[reply] < 4.52

Origin of the recorded values: paper PMC13022235
